All values here come from patent US20160264664A1.

testedOn: T1, mouse P2X7 (mouse, UniProt Q9Z1M0 1-595)
T1 construct: on transfected CHO or Hek293 cells, or endogenous on Yac-1 cells; also called mP2X7; mouse purinoceptor P2X7
T1 sequence: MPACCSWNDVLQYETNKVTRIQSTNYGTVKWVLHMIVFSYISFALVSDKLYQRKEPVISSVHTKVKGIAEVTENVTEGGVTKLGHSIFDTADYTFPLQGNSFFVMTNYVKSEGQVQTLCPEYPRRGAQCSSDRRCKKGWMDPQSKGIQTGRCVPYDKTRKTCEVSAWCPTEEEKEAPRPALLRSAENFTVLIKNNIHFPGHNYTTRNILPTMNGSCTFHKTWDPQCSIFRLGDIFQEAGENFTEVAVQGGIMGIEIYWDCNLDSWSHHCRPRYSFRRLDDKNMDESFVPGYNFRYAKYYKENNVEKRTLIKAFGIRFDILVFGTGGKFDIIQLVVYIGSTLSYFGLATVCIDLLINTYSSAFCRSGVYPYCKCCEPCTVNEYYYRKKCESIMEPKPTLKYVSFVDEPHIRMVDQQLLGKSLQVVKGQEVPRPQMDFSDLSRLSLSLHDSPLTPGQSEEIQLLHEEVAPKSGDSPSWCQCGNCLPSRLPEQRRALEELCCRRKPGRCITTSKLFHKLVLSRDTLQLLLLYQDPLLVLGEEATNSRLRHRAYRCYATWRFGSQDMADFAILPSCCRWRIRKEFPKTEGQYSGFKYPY
methodSummary: phage ELISA, mP2X7-CHO vs control CHO cells
measurementType: absorption ratio (ELISA) (ratio)
Report the figure in ratio without appending any unit label.

// known answers, use as guide
{"binder": "P2X7PMP1C9 (VHH, family 2; on phage or c-myc/His6-tagged in assays) VHH: EVQLVESGGGLVQTGGSLRLSCAASGFTLDDYAIAWFRQAPGKEREGVSILSSIGKTFYADSVKDRFSITADGAKTTVFLQMNSLKPEDTAIYYCVAGHFVYNDGAISLNTARGSGFWGQGAQVTVSS", "measurementType": "absorption ratio (ELISA)", "measureUnit": "ratio", "testResult": 6}
{"binder": "P2X7PMP8G12 (VHH, family 5, 3; on phage or c-myc/His6-tagged in assays; also called 8012) VHH: KVQLVESGGGLVQAGGSLRLSCAASGSFFRVNNMAWYRQGPGKQRELVADITRGDRTNYADSVNGRFTISRDNVRNTVYLQMNGLKPEDTAVYYCYATIELGVLEPRDYWGQGTQVTVSS", "measurementType": "absorption ratio (ELISA)", "measureUnit": "ratio", "testResult": 36}

In: Could you share which absorption ratio (ELISA) value was measured for P2X7PMP16D9 (VHH, family 15; on phage or c-myc/His6-tagged in assays) VHH: EVQLVESGGGLVQAGGSLRLSCAASPGTFSSFNMGWFRQTPGKEREFVAATSWSDISTYYADSVKGRFTISRDNAKNTVTLEMNSLKPEDTAVYYCAAGYYRGGYLGYRLTLEGSYDVWGQGTQVTVSS ?
Out: 7

In: Could you share which absorption ratio (ELISA) value was measured for P2X7PMP8H5 (VHH, family 5, 2; on phage or c-myc/His6-tagged in assays) VHH: EMQLVESGGGLVQAGGSLRLSCAASGNFFRVNTMAWYRQAPGKQRELVADITRGDRTNYADTVNGRFTISRDNVRNTVYLQMNGLKPEDTAAYYCYARIELGVLEPRDYWGQGTQVTVSS ?
Out: 12
